# studySystem: fRR, fluorescently labelled H14 foldamer RR
# protocolNotes: fluorescence polarisation; direct FP: S100 protein diluted in 50 nM labeled foldamer, 20 mM HEPES pH 7.5, 150 mM NaCl, 1 mM CaCl2, 0.5 mM TCEP, 0.01% Tween20; quadratic fit (ProFit); detection threshold Kd 1 mM
Measured Kd of individual entries
reportedProperty: Kd

[
  {
    "binder": "S100A11 (natural protein) MAKISSPTETERCIESLIAVFQKYAGKDGYNYTLSKTEFLSFMNTELAAFTKNQKDPGVLDRMMKKLDTNSDGQLDFSEFLNLIGGLAMACHDSFLKAVPSQKRT",
    "reportedProperty": "Kd",
    "reportedValue": "> 1 mM"
  },
  {
    "binder": "S100A13 (natural protein) MAAEPLTELEESIETVVTTFFTFARQEGRKDSLSVNEFKELVTQQLPHLLKDVGSLDEKMKSLDVNQDSELKFNEYWRLIGELAKEIRKKKDLKIRKK",
    "reportedProperty": "Kd",
    "reportedValue": "> 1 mM"
  }
]

# credit: paper PMC8991199
